System: B6C3F1 mice, B16 melanoma ip, median survival T/C
Procedure details: NCI In Vivo Anticancer Drug Screen. Data for tumor model B16 Melanoma (intraperitoneal) in B6C3F1 mice
Condition details: endpoint: median survival time; dose: 1.0 mg/kg/injection; schedule: Q01DX009 (ip); vehicle: saline with Tween-80
Toxic doses and inconclusive results are not listed. The calls were made as follows: active = survival T/C of 150% or more; inactive = T/C below 125% in these data.
One label from this list, please: active, inactive

Some solved entries appear below for comparison.
| Compound | Label class |
| --- | --- |
| CO[C@@]12[C@H](COC(N)=O)C3=C(C(=O)C(C)=C(N)C3=O)N1C[C@@H]1N[C@@H]12 | active |
| COC(C(=O)C(O)C(C)O)C1Cc2cc3cc(OC4CC(OC(C)=O)C(OC5CC(O)C(OC)C(C)O5)C(C)O4)cc(O)c3c(O)c2C(=O)C1OC1CC(OC2CC(OC3CC(C)(O)C(OC(=O)C(C)C)C(C)O3)C(O)C(C)O2)C(O)C(C)O1 (stereo unspecified) | active |
| COc1ccc(CC2C(=O)NC(C)C(=O)N(C)C3Cc4ccc(cc4)Oc4cc(ccc4O)CC(C(=O)NC(C)C(=O)NC(C)C(=O)N2C)N(C)C3=O)cc1 (stereo unspecified) | inactive |
| Cc1c2ccccc2c(C)c2c1ccc1ccccc12 | inactive |
| C=C1[C@@H](O)[C@]2(O)OC[C@@]34[C@H]1[C@@H](OC(=O)C(C)CC)C(=O)O[C@@H]3C[C@H]1C(C)=CC(=O)[C@@H](O)[C@]1(C)[C@@H]24 (stereo partly specified) | active |

Query compound follows.
Recorded test outcome, item C=C1C(=O)O[C@@H]2C[C@@H](C)[C@@H]3C=CC(=O)[C@@]3(C)[C@@H](OC(=O)CC(=O)O[C@H]3[C@@H]4C(=C)C(=O)O[C@@H]4C[C@@H](C)[C@@H]4C=CC(=O)[C@]43C)[C@H]12 inactive

====

Tested on: B6C3F1 mice, B16 melanoma ip, median survival T/C
Procedure details: NCI In Vivo Anticancer Drug Screen. Data for tumor model B16 Melanoma (intraperitoneal) in B6C3F1 mice
Condition details: endpoint: median survival time; dose: 6.25 mg/kg/injection; schedule: Q01DX009 (ip); vehicle: water; higher = longer survival
Toxic doses and inconclusive results are not listed.
T/C listing for selected compounds.

| Compound | Value |
| --- | --- |
| NC(=O)/C=C/c1c[nH]c2nccnc12 | 95 % of control |
| O=C1C2C3C=CC(C2C(=O)N1CO)C1C2C(=O)N(CO)C(=O)C2C31 (centres undefined) | 102 % of control |
| COc1cccc2c1C(=O)c1c(O)c3c(c(O)c1C2=O)CC(O)(/C(C)=N/NC(=O)CCCCC(=O)N/N=C(\C)C1(O)Cc2c(O)c4c(c(O)c2C(OC2CC(N)C(O)C(C)O2)C1)C(=O)c1c(OC)cccc1C4=O)CC3OC1CC(N)C(O)C(C)O1 (centres undefined) | 335 % of control |

With those in mind, consider the next compound.
Which T/C is listed for O=NNc1ncc(Br)cc1Br ? 108 % of control

====

System: B6C3F1 mice, B16 melanoma ip, median survival T/C
Procedure details: NCI In Vivo Anticancer Drug Screen. Data for tumor model B16 Melanoma (intraperitoneal) in B6C3F1 mice
Condition details: endpoint: median survival time; dose: 200.0 mg/kg/injection; schedule: Q01DX009 (ip); vehicle: saline with Tween-80; higher = longer survival
Toxic doses and inconclusive results are not listed.
T/C listing for selected compounds.

Example results:
| Compound | Value |
| --- | --- |
| O=C(O)C(Cc1ccc(O)cc1)NS(=O)(=O)Cc1ccccc1 (configuration not stated) | 101 % of control |
| NCC1CCC(C(=O)O)CC1 (configuration not stated) | 94 % of control |
| CCCCCCNc1nc(NCCCCCC)c2[nH]c(NCCCCCC)nc2n1 | 91 % of control |
| CC(Cc1ccc(O)cc1)NCC(O)c1ccc(O)c(O)c1 (configuration not stated) | 101 % of control |
| ClC(Cl)(Cl)C1=NCc2nnn(Cc3ccccc3)c2N1 | 95 % of control |

Which T/C is listed for Nc1nc(Cl)c2ncn(C3OC(CO)C(O)C3O)c2n1 (configuration not stated) ? 100 % of control

Which T/C is listed for Cn1nnc2c1C(=O)c1ccccc1C2=O ? 89 % of control

Which T/C is listed for C=CCNC(=O)c1ccccc1SC(C)=O ? 104 % of control

Which T/C is listed for C=COC(=O)C(Cc1ccccc1)NC(=O)OCc1ccccc1 (configuration not stated) ? 102 % of control

Which T/C is listed for Nc1nc2c(ncn2C2OC(CO)C(O)C2N)c(=O)[nH]1 (configuration not stated) ? 104 % of control

Which T/C is listed for Nc1ccc(OCCCc2c(-c3ccccc3)nc(N)[nH]c2=O)cc1 ? 96 % of control

Which T/C is listed for O=C1CN(CN2CCOCC2)C(=O)CN1CN1CCOCC1 ? 100 % of control

====

Tested on: B6C3F1 mice, B16 melanoma ip, median survival T/C
Procedure details: NCI In Vivo Anticancer Drug Screen. Data for tumor model B16 Melanoma (intraperitoneal) in B6C3F1 mice
Condition details: endpoint: median survival time; dose: 3.13 mg/kg/injection; schedule: Q01DX009 (ip); vehicle: saline with Tween-80; higher = longer survival
Toxic doses and inconclusive results are not listed.
Assay endpoint: T/C

Example results:
| Molecule | Assay endpoint | Value |
| --- | --- | --- |
| NC(N)=NC(N)=Nc1ccc(-c2ccc(N=C(N)N=C(N)N)cc2)cc1 | T/C | 90 % of control |
| CN(C)CSCN(C)C | T/C | 89 % of control |
| C[CH2][Ge]([CH2]C)[CH2]C.C[CH2][Ge]([CH2]C)[CH2]C.C[CH2][Ge]([CH2]C)[O][Ge]([CH2]C)[CH2]C | T/C | 89 % of control |
| O=C1NC(c2ccccc2)N=C2Oc3ccccc3C=C12 (configuration not stated) | T/C | 97 % of control |

Which T/C is listed for O=C(Oc1ccc(-c2ccc(Br)cc2)cc1)c1ccco1 ? 102 % of control

Which T/C is listed for C=C1C(C)C2C(Cc3ccccc3)NC(=O)C23C(OC(C)=O)/C=C/C(C)(O)CC(C)C/C=C/C3C1O (configuration not stated) ? 111 % of control

Which T/C is listed for Cc1cc(N=NC(N)=S)c2ccccc2c1O ? 94 % of control

====

Tested on: B6C3F1 mice, B16 melanoma ip, median survival T/C
Procedure details: NCI In Vivo Anticancer Drug Screen. Data for tumor model B16 Melanoma (intraperitoneal) in B6C3F1 mice
Condition details: endpoint: median survival time; dose: 20.0 mg/kg/injection; schedule: Q01DX009 (ip); vehicle: saline with Tween-80
Inconclusive results and toxic doses are left out. How the source made its calls: active means survival T/C of 150% or more; inactive means T/C below 125% in these data.
One label from this list, please: YES for active, NO for inactive

| Molecule | Label class |
| --- | --- |
| O=c1cc(-c2ccc3ccccc3n2)oc2ccc(Cl)cc12 | NO |
| [Cl][Pt+2][Cl].[NH-]c1ccc(Cl)cc1[NH-] | YES |
| CC1C(=O)c2cc3c(cc2CCN(C)Cc2c1ccc1c2OCO1)OCO3 (stereo not given) | NO |
| COc1cc([NH-])c([NH-])cc1OC.[Cl][Pt+2][Cl] | NO |

Query molecule follows.
Recorded test outcome, item O=C/C(Cl)=C(/Cl)C(=O)O NO

====

Tested on: B6C3F1 mice, B16 melanoma ip, median survival T/C
Procedure details: NCI In Vivo Anticancer Drug Screen. Data for tumor model B16 Melanoma (intraperitoneal) in B6C3F1 mice
Condition details: endpoint: median survival time; dose: 64.0 mg/kg/injection; schedule: Q01DX009 (ip); vehicle: saline with Tween-80; higher = longer survival
Toxic doses and inconclusive results are not listed.
T/C listing for selected compounds.

Example results:
| Compound | T/C |
| --- | --- |
| Cc1[nH]ccc(=O)c1O | 109 % of control |
| Cc1c(O)ccc(=O)n1O | 101 % of control |
| CC(=O)OCC1C(=O)OCC1C(=O)N1Cc2cc3ccccc3nc2C1 (centres undefined) | 91 % of control |

With those in mind, consider the next compound.
Which T/C is listed for O=c1[nH]cccc1O ? 93 % of control

====

Tested on: B6C3F1 mice, B16 melanoma ip, median survival T/C
Procedure details: NCI In Vivo Anticancer Drug Screen. Data for tumor model B16 Melanoma (intraperitoneal) in B6C3F1 mice
Condition details: endpoint: median survival time; dose: 5.0 mg/kg/injection; schedule: Q01DX009 (ip); vehicle: Klucel (hydroxypropylcellulose) (HPC); higher = longer survival
Inconclusive results and toxic doses are left out.
T/C listing for selected molecules.

| Molecule | Subject of test | Assay endpoint | Value |
| --- | --- | --- | --- |
| C(CC1CO1)C1CO1 (stereo unspecified) | B6C3F1 mice, B16 melanoma ip, median survival T/C | T/C | 101 % of control |

Which T/C is listed for CC[PH+](CC)CC[S-].CC[PH+](CC)CC[S-].[Au+].[Au+] ? 94 % of control

Which T/C is listed for CC(C)NC(=O)OCc1c(COC(=O)NC(C)C)c(-c2ccc(Cl)c(Cl)c2)n2c1CCC2 ? 158 % of control

Which T/C is listed for CCCC1C/C=C/C=C/C=C/C=C/C(OC2OC(C)C(O)C(N)C2O)CC(O)C(C(=O)O)C(O)CC(=O)CC(O)CCCC(=O)CC(O)C(CC)C(=O)O1 (stereo unspecified) ? 106 % of control

Which T/C is listed for CC(C)CC1C(=O)N2CCCC2C2(O)OC(NC(=O)C3C=C4c5cccc6[nH]cc(c56)CC4N(C)C3)(C(C)C)C(=O)N12 (stereo unspecified) ? 111 % of control

Which T/C is listed for CC1([CH2][Hg][I])COCC([CH2][Hg][I])O1 (stereo unspecified) ? 100 % of control
